Consider the following sequences; for each one, report its PBM E-score.
Target: Msn1 (UniProt P22148)
Sequence: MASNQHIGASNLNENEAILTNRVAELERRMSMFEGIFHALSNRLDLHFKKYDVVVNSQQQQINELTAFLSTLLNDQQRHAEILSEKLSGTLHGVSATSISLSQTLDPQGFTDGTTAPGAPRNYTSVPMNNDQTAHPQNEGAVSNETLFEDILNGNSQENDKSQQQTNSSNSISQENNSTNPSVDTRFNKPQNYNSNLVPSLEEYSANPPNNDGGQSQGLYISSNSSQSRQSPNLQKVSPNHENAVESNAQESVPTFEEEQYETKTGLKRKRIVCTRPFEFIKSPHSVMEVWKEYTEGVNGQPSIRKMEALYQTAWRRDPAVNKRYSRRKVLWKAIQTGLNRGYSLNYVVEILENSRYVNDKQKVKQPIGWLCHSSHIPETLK
Experiment: PBM E-score (8-mer binding enrichment) (E-score (-0.5 to 0.5)); higher = stronger / more preferred TF binding
Conditions: protein concentration: 200 nM; construct: GST-full length
In all, about 33,000 sequences were measured (“E-score (-0.5 to 0.5)”: median about -0.013, highest 2% from about 0.3 on). Shown is part of a subset that was picked to be rich in the highest values.
Number only, please.

ATTAGTCC yielded PBM E-score of 0.349

The reported value for CTCGATGA in terms of PBM E-score is -0.0098

Memo: GAGGCGCC , reported PBM E-score: -0.178

// sample TGGTACCA , its PBM E-score was -0.0646

For GGTGGTAC the sequence record lists PBM E-score as -0.152

Entry under test: CCGGGACA . Its PBM E-score was 0.457

The sequence identified as CCGGGACG registered its PBM E-score at -0.0555

The sequence identified as TCATTTAA registered its PBM E-score at 0.132

Briefly, PBM E-score measured for ACAAATCG : 0.276

Consider AATGTGTC . Its measured PBM E-score is 0.3

The reported value for ACTGTCTG in terms of PBM E-score is 0.079

Record summary for ACTGAAGC : reported PBM E-score = -0.0558

Form field PBM E-score, entry CAGCTAGC : -0.19

The reported PBM E-score of the sequence AGCAGTTA was -0.0695

For reference, reported PBM E-score for CTTTGCTA stands at -0.0573

Reported PBM E-score of ACATTTGG : 0.177

Per the record, CCTTTGAA has PBM E-score of -0.154

Sure, the documented PBM E-score for ATGAGACA is 0.358

Memo: GGTAACTA , reported PBM E-score: 0.18

Record summary for GTTTAGCA : reported PBM E-score = 0.0757

// PBM E-score value for AGGGTCGC : -0.229

Form: sequence = ACAAGAGG ; PBM E-score = -0.011

PBM E-score reading for CATGTGTC : 0.298

Note to self: PBM E-score recorded for CCTTTGTA was 0.163

Memo: ACACCTAC , reported PBM E-score: -0.04

Looking up ACTTTGTA , I see its PBM E-score listed as 0.129

The measured PBM E-score associated with AGTCCTGC reads 0.0243

AAAAGTCT yielded PBM E-score of 0.269

Sure, the documented PBM E-score for CACCCAAC is -0.201

Measured PBM E-score, ATGAGACC : -0.0403

For ATGAGACG the sequence record lists PBM E-score as -0.109

So, ATTTTGTA ? Its PBM E-score was 0.209

Measured PBM E-score, AAAAGTCC : 0.467

PBM E-score recorded for this sequence, ACGGGACA , is 0.384

Form: sequence = AGCTCACC ; PBM E-score = -0.141

Lab note: AACAGCGG gave PBM E-score of -0.0502

Field PBM E-score (entry AATTCTCT ) reads -0.229

The measured PBM E-score associated with GCCCGTCA reads -0.234

Entry under test: ATGTCAGA . Its PBM E-score was 0.265

The recorded PBM E-score for AAGTCACA is 0.127

// sample ACGGGACT , its PBM E-score was 0.0899

Recorded PBM E-score (sequence ATGTCACA ): 0.363

// sample ATTAGTCA , its PBM E-score was 0.0896

Lab book: PBM E-score of CACGCTAG noted as -0.0343

Briefly, PBM E-score measured for CATCTTCA : 0.0522

PBM E-score measured on GTGAGAGA = -0.0903

GTGAGAAA has a reported PBM E-score of 0.124

Lab note: measured PBM E-score of CCGAGACA was 0.319

For record CTCTGAGA the listed PBM E-score is -0.0856

Memo: ACATTAAC , reported PBM E-score: 0.254

Value of measured PBM E-score for the entry CCGCCAGG : -0.117

PBM E-score reading for AAAAGTAT : 0.17

AGATTTTG yielded PBM E-score of 0.0738

sequence AGTTACAT , PBM E-score observed: -0.0774

Per the record, AATCCTTA has PBM E-score of -0.134

So, CTGAAAGC ? Its PBM E-score was 0.0584

Value of measured PBM E-score for the entry AAGGATTG : 0.191

According to the records, this sequence TCGGGAAA displays PBM E-score of 0.176

Reported PBM E-score of ACTTTGTG : 0.0353

Recorded result, ATCCATAA , PBM E-score: 0.124

Entry AGGAAATC ; PBM E-score = 0.0408

Measured PBM E-score of ATATTTTG : 0.176

PBM E-score reported for this sequence AATGTCTC : 0.463

Sample CTGTCACA ; PBM E-score observed: 0.0788

The sequence listed as AGATGTGA shows PBM E-score equal to -0.0694

Value of PBM E-score reported for the sequence AAAAGTAC is 0.366

Record AGATGTAA . Reported PBM E-score: 0.102

Lab note: GTGACACA gave PBM E-score of 0.286

PBM E-score reported for this sequence CCCTGCAG : -0.245

For reference, reported PBM E-score for AGGTCACC stands at -0.0357

So for TGCACACA , the logged PBM E-score turned out to be 0.0221

Data point: AAAAGTCA ; PBM E-score = 0.194

Value of measured PBM E-score for the entry AACGAGTC : -0.0621

get_value(item= GCGGGACA , readout=PBM E-score) returns 0.359

The measured PBM E-score associated with ACGGGACC reads -0.247

Quick note, PBM E-score for GGGTACAA landed at 0.198

Short answer for GTAGGATA : PBM E-score was -0.0803

The sequence listed as GCGGGATA shows PBM E-score equal to 0.0848
